measurement protocol: Solubility assessment of amorphous RAD1901-2HCl
Type: physicochemical
experimental conditions: organic solvent or mixture, thermodynamic from solid; MEK; sample ID B7; read-out: Solubility assessment 10 vol.
reported property: solubility

Supply recorded solubility for CCNCCc1ccc(CN(CC)c2cc(OC)ccc2[C@@H]2CCc3cc(O)ccc3C2)cc1.Cl.Cl [amorphous RAD1901-2HCl] here.
< 100 mg/mL

---

measurement protocol: Solubility assessment of Sample 1 (majorly Form 1) in 24 solvent systems
Format: physicochemical
experimental conditions: 10% water/EtOH, 50 °C, organic solvent or mixture, thermodynamic from solid, 10% water/EtOH; sample ID A22; read-out: Solubility assessment 20 vol.
reported property: solubility

Supply recorded solubility for CCNCCc1ccc(CN(CC)c2cc(OC)ccc2[C@@H]2CCc3cc(O)ccc3C2)cc1.Cl.Cl here.
50 to 100 mg/mL

---

measurement protocol: Solubility assessment of Sample 1 (majorly Form 1) in 24 solvent systems
Type: physicochemical
experimental conditions: n-heptane, 50 °C, organic solvent or mixture, thermodynamic from solid, n-Heptane; sample ID A1; read-out: Solubility assessment 40 vol.
reported property: solubility

Supply recorded solubility for CCNCCc1ccc(CN(CC)c2cc(OC)ccc2[C@@H]2CCc3cc(O)ccc3C2)cc1.Cl.Cl here.
< 25 mg/mL

---

measurement protocol: Solubility assessment of Sample 1 (majorly Form 1) in 24 solvent systems
Assay type: physicochemical
experimental conditions: 1-propanol, 50 °C, organic solvent or mixture, thermodynamic from solid, 1-propanol; sample ID A8; read-out: Solubility assessment 20 vol.
Description: Solubility assessment was carried out on the Sample 1 of RAD1901-2HCl (majorly Form 1 shown by XRPD) in 24 solvent systems in HPLC vials (sample IDs: A1 to A24). […] After each addition of solvent, the system was stirred for 5 to 10 minutes at 25° C., then shaken at 50° C. for 5 to 10 minutes, and observations made. […] All solids recovered from maturation, cooling and evaporation experiments were analyzed by high resolution XRPD.
reported property: solubility

Supply recorded solubility for CCNCCc1ccc(CN(CC)c2cc(OC)ccc2[C@@H]2CCc3cc(O)ccc3C2)cc1.Cl.Cl here.
< 50 mg/mL

---

measurement protocol: Solubility assessment of Sample 1 (majorly Form 1) in 24 solvent systems
Type: physicochemical
experimental conditions: dichloromethane, 50 °C, organic solvent or mixture, thermodynamic from solid, Dichloromethane; sample ID A18; read-out: Solubility assessment 40 vol.
reported property: solubility

Supply recorded solubility for CCNCCc1ccc(CN(CC)c2cc(OC)ccc2[C@@H]2CCc3cc(O)ccc3C2)cc1.Cl.Cl here.
< 25 mg/mL

---

measurement protocol: Solubility assessment of amorphous RAD1901-2HCl in water/organic solvent system
Format: physicochemical
experimental conditions: EtOH/H2O (95:5), organic solvent or mixture, thermodynamic from solid, EtOH/H2O (95:5); sample ID C2; read-out: Solubility assessment 10 vol.
reported property: solubility

Supply recorded solubility for CCNCCc1ccc(CN(CC)c2cc(OC)ccc2[C@@H]2CCc3cc(O)ccc3C2)cc1.Cl.Cl [amorphous RAD1901-2HCl] here.
< 100 mg/mL

---

measurement protocol: Solubility assessment of Sample 1 (majorly Form 1) in 24 solvent systems
Type: physicochemical
experimental conditions: dichloromethane, 50 °C, organic solvent or mixture, thermodynamic from solid, Dichloromethane; sample ID A18; read-out: Solubility assessment 10 vol.
Procedure: Solubility assessment was carried out on the Sample 1 of RAD1901-2HCl (majorly Form 1 shown by XRPD) in 24 solvent systems in HPLC vials (sample IDs: A1 to A24). […] After each addition of solvent, the system was stirred for 5 to 10 minutes at 25° C., then shaken at 50° C. for 5 to 10 minutes, and observations made. […] All solids recovered from maturation, cooling and evaporation experiments were analyzed by high resolution XRPD.
reported property: solubility

Supply recorded solubility for CCNCCc1ccc(CN(CC)c2cc(OC)ccc2[C@@H]2CCc3cc(O)ccc3C2)cc1.Cl.Cl here.
< 100 mg/mL

---

measurement protocol: Solubility assessment of Sample 1 (majorly Form 1) in 24 solvent systems
Format: physicochemical
experimental conditions: MIBK, 50 °C, organic solvent or mixture, thermodynamic from solid, MIBK; sample ID A5; read-out: Solubility assessment 10 vol.
reported property: solubility

Supply recorded solubility for CCNCCc1ccc(CN(CC)c2cc(OC)ccc2[C@@H]2CCc3cc(O)ccc3C2)cc1.Cl.Cl [Sample 1] here.
< 100 mg/mL

---

measurement protocol: Solubility assessment of amorphous RAD1901-2HCl
Assay type: physicochemical
experimental conditions: organic solvent or mixture, thermodynamic from solid; 1-propanol; sample ID B8; read-out: Solubility assessment 10 vol.
reported property: solubility

Supply recorded solubility for CCNCCc1ccc(CN(CC)c2cc(OC)ccc2[C@@H]2CCc3cc(O)ccc3C2)cc1.Cl.Cl [amorphous RAD1901-2HCl] here.
< 100 mg/mL

---

measurement protocol: Solubility assessment of Sample 1 (majorly Form 1) in 24 solvent systems
Format: physicochemical
experimental conditions: acetone, 50 °C, organic solvent or mixture, thermodynamic from solid, Acetone; sample ID A9; read-out: Solubility assessment 60 vol.
reported property: solubility

Supply recorded solubility for CCNCCc1ccc(CN(CC)c2cc(OC)ccc2[C@@H]2CCc3cc(O)ccc3C2)cc1.Cl.Cl here.
< 16.7 mg/mL
